target: α-glucosidase (Homo sapiens)
QUANTITY_MEASURED: pKi
Answers are plain numbers, as −log10 of the molar value.

According to the records, this compound `Cc1cccc(C[C@@H]2C[C@H]3C(=O)N(C)[C@@]4(C[C@H](C)CC[C@H]4C(C)C)N3O2)c1OCC(=O)N/N=C1\C(=O)Nc2c(Cl)cccc21` displays pKi of 4.25

====

target: human pancreatic α-amylase (Homo sapiens)
Answer each item with its documented pIC50.
One number for each entry, as −log10 of the molar value.

Respectfully, I request pIC50 for each entry included below.
1. Cc1cccc(C[C@@H]2C[C@H]3C(=O)N(C)[C@@]4(C[C@H](C)CC[C@H]4C(C)C)N3O2)c1OCC(=O)N/N=C1\C(=O)Nc2ccc(F)cc21 [5f]
2. Cc1cccc(C[C@@H]2C[C@H]3C(=O)N(C)[C@@]4(C[C@H](C)CC[C@H]4C(C)C)N3O2)c1OCC(=O)N/N=C1\C(=O)Nc2cc(Br)ccc21 [5e]
3. Cc1ccc2c(c1)/C(=N/NC(=O)COc1c(C)cccc1C[C@@H]1C[C@H]3C(=O)N(C)[C@@]4(C[C@H](C)CC[C@H]4C(C)C)N3O1)C(=O)N2 [5g]
4. COc1cc(C[C@@H]2C[C@H]3C(=O)N(C)[C@@]4(C[C@H](C)CC[C@H]4C(C)C)N3O2)ccc1OCC(=O)N/N=C1\C(=O)Nc2c(Cl)cccc21 [5a]
5. COc1cc(C[C@@H]2C[C@H]3C(=O)N(C)[C@@]4(C[C@H](C)CC[C@H]4C(C)C)N3O2)ccc1OCC(=O)N/N=C1\C(=O)Nc2ccc(F)cc21 [5b]

[4.25, 4.03, 3.87, 3.71, 3.76]

====

Would you mind telling me the reported IC50 of each entry?
Sequence of the target: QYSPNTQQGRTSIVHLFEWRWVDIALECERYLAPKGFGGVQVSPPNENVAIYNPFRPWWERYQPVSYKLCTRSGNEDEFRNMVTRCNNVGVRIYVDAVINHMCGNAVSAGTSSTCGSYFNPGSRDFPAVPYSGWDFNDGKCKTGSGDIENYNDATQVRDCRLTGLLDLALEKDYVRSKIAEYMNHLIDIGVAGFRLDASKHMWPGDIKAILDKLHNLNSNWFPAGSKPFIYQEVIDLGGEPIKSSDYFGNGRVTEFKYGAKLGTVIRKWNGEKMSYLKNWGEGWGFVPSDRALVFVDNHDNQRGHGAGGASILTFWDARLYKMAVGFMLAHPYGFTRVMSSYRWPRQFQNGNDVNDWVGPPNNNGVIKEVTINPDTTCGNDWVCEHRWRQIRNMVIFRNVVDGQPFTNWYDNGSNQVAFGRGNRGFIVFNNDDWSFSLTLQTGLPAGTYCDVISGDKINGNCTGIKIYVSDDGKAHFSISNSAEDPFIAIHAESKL
One number for each entry, in µM.

Known IC50 results, listed for orientation:
Cc1cccc(C[C@@H]2C[C@H]3C(=O)N(C)[C@@]4(C[C@H](C)CC[C@H]4C(C)C)N3O2)c1OCC(=O)N/N=C1\C(=O)Nc2c(F)cccc21 [5h] = 46.6
COc1cc(C[C@@H]2C[C@H]3C(=O)N(C)[C@@]4(C[C@H](C)CC[C@H]4C(C)C)N3O2)ccc1OCC(=O)N/N=C1\C(=O)Nc2cc(Br)ccc21 [5c] = 68

Now consider a different molecule.
Notebook: Cc1cccc(C[C@@H]2C[C@H]3C(=O)N(C)[C@@]4(C[C@H](C)CC[C@H]4C(C)C)N3O2)c1OCC(=O)N/N=C1\C(=O)Nc2c(Cl)cccc21 [5d] , IC50 read as 30.4
